Experiment: Effective concentration to potentiate GABA responses
Type: functional
test.readout: EC50 (µM)
Provide only the numeric value, understood in µM.

Entry under test: FC(F)(C(Cl)Br)C1N=N1 (stereo unspecified) . Its EC50 was 50

====

Test: Dissociation constant for a single binding site at 5 mM concentration
test.readout: Kd (µM)
Provide only the numeric value, understood in µM.

Entry under test: "[N-]=[N+]=CC(F)(F)F" . Its Kd was 1300

====

Molecular target: Albumin (Homo sapiens, UniProt P02768)
Sequence (P02768 whole entry): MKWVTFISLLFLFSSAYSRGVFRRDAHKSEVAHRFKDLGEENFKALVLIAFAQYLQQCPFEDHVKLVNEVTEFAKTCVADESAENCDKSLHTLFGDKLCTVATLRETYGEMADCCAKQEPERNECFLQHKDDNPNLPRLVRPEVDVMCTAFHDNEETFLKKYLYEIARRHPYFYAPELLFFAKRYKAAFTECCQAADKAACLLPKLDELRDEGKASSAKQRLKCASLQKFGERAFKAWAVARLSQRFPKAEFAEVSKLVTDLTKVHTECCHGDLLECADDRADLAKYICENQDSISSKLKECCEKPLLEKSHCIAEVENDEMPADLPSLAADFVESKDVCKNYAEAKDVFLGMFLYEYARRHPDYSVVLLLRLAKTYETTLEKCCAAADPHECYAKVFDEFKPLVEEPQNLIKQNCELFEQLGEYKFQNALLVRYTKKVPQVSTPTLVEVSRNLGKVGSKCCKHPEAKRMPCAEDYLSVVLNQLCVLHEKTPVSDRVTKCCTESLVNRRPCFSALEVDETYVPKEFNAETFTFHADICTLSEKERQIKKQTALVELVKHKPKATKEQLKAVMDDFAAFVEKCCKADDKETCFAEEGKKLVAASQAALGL
Assay: Inhibitory concentration bound to tryptophan containing region of Serum albumin in fluorescence quenching
test.readout: IC50
Could you give the number and then its unit, please?

Entry under test: "[N-]=[N+]=CC(F)(F)F" . Its IC50 was 1200 µM

Entry under test: FC(Cl)C(F)(F)C1(Br)N=N1 (centres undefined) . Its IC50 was 700 µM

Entry under test: FC(F)(C(Cl)Br)C1N=N1 (centres undefined) . Its IC50 was 800 µM

Entry under test: "FC(F)(F)C1(Br)N=N1" . Its IC50 was 400 µM
